IC50 values for the molecules below.
Test system: NCI-H358 cells (K-Ras G12C)
Assay: CellTiter-Glo cell viability, NCI-H358
Format: cell-based, human
Details: Homo sapiens, NCI-H358, 120 h, K-Ras G12C, 5-day treatment; read-out: H358 Cell Viability IC50

- MOLECULE: "CCn1c(-c2ccccc2CCOC)c2c3cc(ccc31)-c1cc(O)cc(c1)C[C@H](NC(=O)[C@H](C(C)C)N(C)C(=O)CNC(=N)N)C(=O)N1CCC[C@H](N1)C(=O)OCC(C)(C)C2"
  IC50: "> 10000 nM"
- MOLECULE: "CCn1c(-c2cccnc2[C@H](C)OC)c2c3cc(ccc31)-c1csc(n1)C[C@H](NC(=O)[C@H](C(C)C)N(C)C(=O)N1CCOC[C@@H]1C)C(=O)N1CCC[C@H](N1)C(=O)OCC(C)(C)C2"
  IC50: "10 to 100 nM"
- MOLECULE: "CCn1c(-c2cccnc2[C@H](C)OC)c2c3cc(ccc31)-c1cccc(c1)C[C@H](NC(=O)[C@H](C(C)C)N(C)C(C)=O)C(=O)N1CCC[C@H](N1)C(=O)OCC(C)(C)C2"
  IC50: "1000 to 10000 nM"
- MOLECULE: "CCn1c(-c2cccnc2[C@H](C)OC)c2c3cc(ccc31)-c1cc(O)cc(c1)C[C@H](NC(=O)[C@H](C(C)C)N(C)C(=O)[C@H]1CCN(C(=O)[C@@]3(C)CCCN3C)C1)C(=O)N1CCC[C@H](N1)C(=O)OCC(C)(C)C2"
  IC50: "10 to 100 nM"
- MOLECULE: "CCn1c(-c2cccnc2[C@H](C)OC)c2c3cc(ccc31)-c1csc(n1)C[C@H](NC(=O)[C@H](C(C)C)N(C)C(=O)N1CC3(CC(N(C)C(C)C)C3)C1)C(=O)N1CCC[C@H](N1)C(=O)OCC(C)(C)C2"
  IC50: "10 to 100 nM"
- MOLECULE: "CCn1c(-c2cccnc2[C@H](C)OC)c2c3cc(ccc31)-c1csc(n1)C[C@H](NC(=O)[C@H](C(C)C)N(C)C(=O)N1C[C@H]3CN(C)CC[C@H]31)C(=O)N1CCC[C@H](N1)C(=O)OCC(C)(C)C2"
  IC50: "100 to 1000 nM"
- MOLECULE: "CCn1c(-c2cccnc2[C@H](C)OC)c2c3cc(ccc31)-c1cc(O)cc(c1)C[C@H](NC(=O)[C@H](C(C)C)N(C)C(=O)[C@H]1C[C@@H]1F)C(=O)N1CCC[C@H](N1)C(=O)OCC(C)(C)C2"
  IC50: "100 to 1000 nM"
- MOLECULE: "CCn1c(-c2cccnc2[C@H](C)OC)c2c3cc(ccc31)-c1csc(n1)C[C@H](NC(=O)[C@H](C(C)C)N(C)C(=O)N1CC(N)C1)C(=O)N1CCC[C@H](N1)C(=O)OCC(C)(C)C2"
  IC50: "100 to 1000 nM"
- MOLECULE: "CCn1c(-c2cnccc2COC)c2c3cc(ccc31)-c1cc(O)cc(c1)C[C@H](NC(=O)[C@H](C(C)C)N(C)C(=O)[C@H]1CCN(C(=O)CO)C1)C(=O)N1CCC[C@H](N1)C(=O)OCC(C)(C)C2"
  IC50: "1000 to 10000 nM"
- MOLECULE: "CCn1c(-c2cccnc2[C@H](C)OC)c2c3cc(ccc31)-c1cc(O)cc(c1)C[C@H](NC(=O)[C@H](C(C)C)N(C)C(=O)C1CCNC13CCC3)C(=O)N1CCC[C@H](N1)C(=O)OCC(C)(C)C2 (some centres unmarked)"
  IC50: "100 to 1000 nM"
- MOLECULE: "CCn1c(-c2cccnc2[C@H](C)OC)c2c3cc(ccc31)-c1csc(n1)C[C@H](NC(=O)[C@H](C(C)C)N(C)C(=O)N1[C@H](C)COC[C@@H]1C)C(=O)N1CCC[C@H](N1)C(=O)OCC(C)(C)C2"
  IC50: "100 to 1000 nM"
- MOLECULE: "CCn1c(-c2cccnc2[C@H](C)OC)c2c3cc(ccc31)-c1csc(n1)C[C@H](NC(=O)[C@H](C(C)C)N(C)C(=O)N(C)C1COC1)C(=O)N1CCC[C@H](N1)C(=O)OCC(C)(C)C2"
  IC50: "10 to 100 nM"
- MOLECULE: "CCn1c(-c2cnccc2COC)c2c3cc(ccc31)-c1cc(O)cc(c1)C[C@H](NC(=O)[C@H](C(C)C)N(C)C(=O)[C@H]1CCN(C3COC3)C1)C(=O)N1CCC[C@H](N1)C(=O)OCC(C)(C)C2"
  IC50: "1000 to 10000 nM"
- MOLECULE: "CCn1c(-c2cccnc2[C@H](C)OC)c2c3cc(ccc31)-c1cc(CF)cc(c1)C[C@H](NC(=O)[C@H](C(C)C)N(C)C(=O)[C@@H]1OCC[C@@H]1c1ccccc1)C(=O)N1CCC[C@H](N1)C(=O)OCC(C)(C)C2"
  IC50: "10 to 100 nM"
- MOLECULE: "CCn1c(-c2cccnc2[C@H](C)OC)c2c3cc(ccc31)-c1csc(n1)C[C@H](NC(=O)[C@H](C(C)C)N(C)C(=O)N1CCC[C@@H]1CN(C)C)C(=O)N1CCC[C@H](N1)C(=O)OCC(C)(C)C2"
  IC50: "10 to 100 nM"
- MOLECULE: "CCn1c(-c2cccnc2[C@H](C)OC)c2c3cc(ccc31)-c1csc(n1)C[C@H](NC(=O)[C@H](C(C)C)N(C)C(=O)N1C[C@@H](C)N(C)C[C@@H]1C)C(=O)N1CCC[C@H](N1)C(=O)OCC(C)(C)C2"
  IC50: "100 to 1000 nM"
- MOLECULE: "CCn1c(-c2cccnc2[C@H](C)OC)c2c3cc(ccc31)-c1cc(O)cc(c1)C[C@H](NC(=O)[C@H](C(C)C)N(C)C(=O)[C@@H]1CCCC[C@@H]1N)C(=O)N1CCC[C@H](N1)C(=O)OCC(C)(C)C2"
  IC50: "100 to 1000 nM"
